Reference source for all entries: ChEMBL document CHEMBL5096236

Biological target: UniProt:Q13547
Sequence (Q13547 whole entry, the tested form may be a part): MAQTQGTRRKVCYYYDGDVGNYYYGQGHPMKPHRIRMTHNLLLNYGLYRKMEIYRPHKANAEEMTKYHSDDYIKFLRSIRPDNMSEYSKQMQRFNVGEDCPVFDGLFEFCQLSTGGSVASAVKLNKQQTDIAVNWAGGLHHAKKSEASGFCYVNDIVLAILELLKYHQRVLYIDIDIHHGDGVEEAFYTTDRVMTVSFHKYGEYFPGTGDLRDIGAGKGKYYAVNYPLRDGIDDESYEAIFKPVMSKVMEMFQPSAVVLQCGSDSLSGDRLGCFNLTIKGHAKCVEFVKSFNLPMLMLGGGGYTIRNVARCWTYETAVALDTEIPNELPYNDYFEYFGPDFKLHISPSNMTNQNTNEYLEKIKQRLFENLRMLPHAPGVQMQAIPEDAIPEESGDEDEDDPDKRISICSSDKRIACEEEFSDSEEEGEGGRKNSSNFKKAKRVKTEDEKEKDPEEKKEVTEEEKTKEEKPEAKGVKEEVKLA
Assay: Inhibition of recombinant human C-terminal FLAG/His-tagged HDAC1 (1 to 482 residues) expressed in Sf9 insect cells using Z-Lys(Ac)-AMC as fluorogenic substrate incubated for 90 mins by microplate reader analysis
Settings: sf9
Give measured pIC50 for each item. Keep answers brief.
One number for each entry, as −log10 of the molar value.

[
  {
    "STRUCTURE_SMILES_STRING": "Cc1ccccc1C(=O)N(CC(=O)NC(C)(C)C)Cc1ccc(C(=O)NO)cc1",
    "TARGET_UNDER_TEST": "UniProt:Q13547",
    "pIC50": 5.62
  }
]

Now let's try a different one.
Endpoint output: pIC50 of `COc1ccccc1C(=O)N(CC(=O)NC(C)(C)C)Cc1ccc(C(=O)NO)cc1` . Value? 5.51
